- STUDY_SYSTEM: T1, MPDZ_10, O75970
- T1 sequence (O75970 1624-1722, limits assumed, looked up): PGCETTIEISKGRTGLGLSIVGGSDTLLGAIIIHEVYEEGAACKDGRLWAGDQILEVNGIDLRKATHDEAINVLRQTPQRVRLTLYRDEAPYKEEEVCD
- ASSAY_EXPLANATION: holdup assay
- Design: key: below the threshold = too weak to quantify, mostly under pKd 3.1 to 4
- TEST_PARAMETERS: plain residues with an end cap or a label only (N-terminal biotin on a linker: ado-ado)
MEASURED_QUANTITY: pKd

Example results:
HLRARKSEWV [GJD4, Q96KN9] | below the threshold
PPYRHRNTVV [ERBB4, Q15303] | 3.95
QHKTQLQTLI [BPIFA2, Q96DR5] | below the threshold
PAPSSGKDYV [CLDN1, O95832] | below the threshold
SARSRLSSNL [HCN2, Q9UL51] | below the threshold
NHSSSPETTA [TRMT13, Q9NUP7] | below the threshold
SAAKVLTSMC [GHRHR, Q02643] | 3.49
RRLPGKETMA [GRIK2, Q13002] | below the threshold
DDENIRTSDV [PLEKHA2, Q9HB19] | 3.85
PLSPEQPTKL [TRIM50, Q86XT4] | below the threshold

Prompt: Look up and state reported pKd for TLPRKRMSSI [GPRC6A, Q5T6X5]
Response: below the threshold

Prompt: Look up and state reported pKd for HSGYRLNDYV [CLDN14, O95500]
Response: below the threshold

Prompt: Look up and state reported pKd for QSARLWETSI [ADAM22, Q9P0K1]
Response: below the threshold

Prompt: Look up and state reported pKd for LKVPPEERLI [CRB2, Q5IJ48]
Response: below the threshold

Prompt: Look up and state reported pKd for QGPVETESVV [SLC45A4, Q5BKX6]
Response: below the threshold

Prompt: Look up and state reported pKd for TPPAAKKSRI [BAZ1A, Q9NRL2]
Response: 3.69

Each recorded value in this set is attributed to paper PMC9482650.
